biological target: HDAC2 (Homo sapiens); assay: HDAC2 enzymatic inhibition assay in SY5Y cell lysate with HDAC-Glo2 substrate; assay type: cell-based; parameters: host or cells: SH-SY5Y; conditions: SH-SY5Y cells, 5 h compound incubation, HDAC-Glo 2 reagent
Sequence (Q92769 whole entry): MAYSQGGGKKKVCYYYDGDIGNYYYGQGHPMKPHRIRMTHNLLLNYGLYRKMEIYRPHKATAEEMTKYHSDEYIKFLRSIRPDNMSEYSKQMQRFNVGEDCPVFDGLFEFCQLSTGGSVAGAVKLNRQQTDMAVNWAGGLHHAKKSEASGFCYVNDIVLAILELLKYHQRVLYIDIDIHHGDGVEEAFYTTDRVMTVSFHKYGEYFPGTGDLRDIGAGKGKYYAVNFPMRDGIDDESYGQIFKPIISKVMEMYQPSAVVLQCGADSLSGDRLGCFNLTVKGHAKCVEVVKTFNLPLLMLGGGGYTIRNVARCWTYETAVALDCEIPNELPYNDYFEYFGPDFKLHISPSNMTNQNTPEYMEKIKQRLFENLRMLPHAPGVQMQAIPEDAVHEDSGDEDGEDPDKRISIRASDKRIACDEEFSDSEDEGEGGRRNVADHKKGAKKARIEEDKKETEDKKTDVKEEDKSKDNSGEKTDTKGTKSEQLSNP
Provide the recorded pIC50 for the entries that follow.
Answers are plain numbers, as −log10 of the molar value.

Hello, I would appreciate it if you could give pIC50 for each entry below.
1. COCc1cc2c(cn1)CN(C(=O)Nc1nc(-c3ccc(F)cc3)ccc1N)C2 [Comparator I]
2. COCc1cc2c(cn1)CN(C(=O)Nc1nc(-c3ccc(F)cc3F)ccc1N)C2 [Compound 1]

Result string:
1: 6.18; 2: 6.11

Hello, I would appreciate it if you could give pIC50 for each entry below.
1. Nc1ccc(-c2ccc(F)cc2)nc1NC(=O)N1Cc2nccnc2C1 [Comparator B]
2. Nc1ccc(-c2ccc(F)cc2)nc1NC(=O)N1Cc2cccnc2C1 [Comparator F]
3. Cc1ncc2c(n1)CN(C(=O)Nc1nc(-c3cccs3)ccc1N)C2 [Compound 2]
4. Nc1ccc(-c2ccc(F)cc2)cc1NC(=O)N1Cc2nccnc2C1 [Comparator A]

Result string:
1: 6.31; 2: 6.40; 3: 6.24; 4: 6.43

###

Provide the recorded log10 of solubility at 1 h for the entries that follow.
assay: Aqueous kinetic solubility measurement; format: physicochemical; details: aqueous buffer, kinetic from dmso stock; kinetic, 100 mM phosphate buffer pH 7.4, 1% DMSO
A difference of one corresponds to tenfold solubility at 1 h; all values are log10 with solubility at 1 h in µM.

These recorded examples may help you get a feel for the data.
{"Query smiles": "Cc1cc2c(cn1)CN(C(=O)Nc1nc(-c3ccc(F)cc3)ccc1N)C2", "Experimental readout": "log10 of solubility at 1 h", "Quantitative result": 1.89}
{"Query smiles": "COCc1cc2c(cn1)CN(C(=O)Nc1nc(-c3ccc(F)cc3)ccc1N)C2", "Experimental readout": "log10 of solubility at 1 h", "Quantitative result": 2.08}
{"Query smiles": "Nc1ccc(-c2ccc(F)cc2)nc1NC(=O)N1Cc2ccncc2C1", "Experimental readout": "log10 of solubility at 1 h", "Quantitative result": 1.74}
{"Query smiles": "Nc1ccc(-c2ccc(F)cc2)nc1NC(=O)N1Cc2cccnc2C1", "Experimental readout": "log10 of solubility at 1 h", "Quantitative result": 0.00}

Alright, here's another compound for you.
log10 of solubility at 1 h reading for COCc1cc2c(cn1)CN(C(=O)Nc1nc(-c3ccc(F)cc3F)ccc1N)C2 : 1.43

###

Assay: Brain and plasma exposure following IV and PO administration to mice
Format: in vivo
Details: plasma, 1 mg/kg; mouse, IV 1 mpk; read-out: Mouse IV (1 mpk): T1/2 (converted)
Experimental: Compounds were dosed in mice at either 10 mg/kg or 30 mg/kg PO, and were dosed at 1 mg/kg IV. Three animals for collection at each time point for plasma via bleeding at 0.25, 0.5, 1, 4, 12 and 24 h. Terminal bleeding for plasma and sampling for brain at 0.25, 0.5, 1, 4, 12 and 24 h (also three animals per brain exposure time point group). Total of six time points for plasma and six time points for brain. […]
Experimental readout: half-life (min)
Give bare numbers, in min.

half-life reading for Cc1ncc2c(n1)CN(C(=O)Nc1nc(-c3cccs3)ccc1N)C2 : 50.3

###

target: CYP3A4 (Homo sapiens, UniProt P08684); construct: Human liver microsomes were obtained from BD Gentest; tissue BD Gentest; host or cells: human liver microsomes; assay: CYP inhibition assay in human liver microsomes (3A4, midazolam); format: in vitro ADME; details: probe midazolam, human liver microsomes, midazolam
Sequence (P08684 whole entry): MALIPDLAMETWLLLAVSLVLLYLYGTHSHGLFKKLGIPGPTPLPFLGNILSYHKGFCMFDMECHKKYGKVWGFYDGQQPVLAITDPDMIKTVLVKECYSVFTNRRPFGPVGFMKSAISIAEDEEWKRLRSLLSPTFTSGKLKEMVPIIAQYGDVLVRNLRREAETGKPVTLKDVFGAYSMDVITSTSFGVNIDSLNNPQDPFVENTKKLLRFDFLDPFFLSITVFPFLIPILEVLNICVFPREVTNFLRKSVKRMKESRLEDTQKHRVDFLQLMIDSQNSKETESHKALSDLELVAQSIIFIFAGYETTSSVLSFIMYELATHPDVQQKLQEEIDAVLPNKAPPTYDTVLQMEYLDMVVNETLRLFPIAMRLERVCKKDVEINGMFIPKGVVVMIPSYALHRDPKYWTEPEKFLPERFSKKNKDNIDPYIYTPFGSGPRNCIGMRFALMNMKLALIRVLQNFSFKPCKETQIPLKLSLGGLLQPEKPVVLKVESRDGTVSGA
Experimental readout: inhibition at 5 min, 10 µM (%)
Answers are plain numbers, in %.

These recorded examples may help you get a feel for the data.
{"Molecule": "Nc1ccc(-c2ccc(F)cc2)cc1NC(=O)N1Cc2nccnc2C1 [Comparator A]", "Target": "CYP3A4 (Homo sapiens, UniProt P08684)", "Experimental readout": "inhibition at 5 min, 10 µM", "Quantitative result": -22}
{"Molecule": "Cc1cc2c(cn1)CN(C(=O)Nc1nc(-c3ccc(F)cc3)ccc1N)C2 [Comparator H]", "Target": "CYP3A4 (Homo sapiens, UniProt P08684)", "Experimental readout": "inhibition at 5 min, 10 µM", "Quantitative result": 28}
{"Molecule": "Nc1ccc(-c2ccc(F)cc2)nc1NC(=O)N1Cc2nccnc2C1 [Comparator B]", "Target": "CYP3A4 (Homo sapiens, UniProt P08684)", "Experimental readout": "inhibition at 5 min, 10 µM", "Quantitative result": 1.5}
{"Molecule": "Nc1ccc(-c2cccs2)nc1NC(=O)N1Cc2cncnc2C1 [Comparator E]", "Target": "CYP3A4 (Homo sapiens, UniProt P08684)", "Experimental readout": "inhibition at 5 min, 10 µM", "Quantitative result": -17}
{"Molecule": "Nc1ccc(-c2ccc(F)cc2)nc1NC(=O)N1Cc2cncnc2C1 [Comparator D]", "Target": "CYP3A4 (Homo sapiens, UniProt P08684)", "Experimental readout": "inhibition at 5 min, 10 µM", "Quantitative result": 2}

Hello, I would appreciate it if you could give inhibition at 5 min, 10 µM for each entry below.
1. Nc1ccc(-c2ccc(F)cc2)nc1NC(=O)N1Cc2ccncc2C1 [Comparator G]
2. COCc1cc2c(cn1)CN(C(=O)Nc1nc(-c3ccc(F)cc3F)ccc1N)C2 [Compound 1]

Result string:
65
27

###

Test system: human myeloid progenitors (CFU-GM)
Assay: Myeloid CFU assay in human bone marrow cells
Type: cell-based
Conditions: 10 μM, 14 days culture, human bone marrow cells
Method: Compounds were tested to evaluate the potential effects on human erythroid and myeloid progenitors using colony forming cell assays. Clonogenic progenitors of human erythroid (CFU-E, BFU-E), granulocyte-monocyte (CFU-GM) and multipotential (CFU-GEMM) lineages were assessed in a semi-solid methylcellulose-based media formulation containing rhlL-3 (10 ng/mL), rhGM-SCF (10 ng/mL), rhSCF (50 ng/mL) and Epo (3 U/mL). […]
Provide the recorded CFU % Control remaining @ 10 μM Myeloid for the entries that follow.
One number for each entry, in %.

{"Compound": "Nc1ccc(-c2cccs2)nc1NC(=O)N1Cc2cncnc2C1 [Comparator E]", "Result unit": "%", "Quantitative result": 83}

Hello, I would appreciate it if you could give CFU % Control remaining @ 10 μM Myeloid for each entry below.
1. Nc1ccc(-c2ccc(F)cc2)nc1NC(=O)N1Cc2cncnc2C1 [Comparator D]
2. Nc1ccc(-c2ccc(F)cc2)nc1NC(=O)N1Cc2nccnc2C1 [Comparator B]
3. Cc1ncc2c(n1)CN(C(=O)Nc1nc(-c3cccs3)ccc1N)C2 [Compound 2]
4. COCc1cc2c(cn1)CN(C(=O)Nc1nc(-c3ccc(F)cc3F)ccc1N)C2 [Compound 1]
5. Nc1ccc(-c2ccc(F)cc2)cc1NC(=O)N1Cc2nccnc2C1 [Comparator A]

Result string:
84
25
59
86
0

Hello, I would appreciate it if you could give CFU % Control remaining @ 10 μM Myeloid for each entry below.
1. Nc1ccc(-c2cccs2)nc1NC(=O)N1Cc2nccnc2C1 [Comparator C]
2. COCc1cc2c(cn1)CN(C(=O)Nc1nc(-c3ccc(F)cc3)ccc1N)C2 [Comparator I]

Result string:
1: 20; 2: 59

###

tested on: human erythroid progenitors (CFU-E, BFU-E); assay: Erythroid CFU assay in human bone marrow cells; type: cell-based; conditions: 10 μM, 14 days culture, human bone marrow cells
Criterion: CFU % Control remaining @ 10 μM Erythroid strictly less than 50%. Met: criterion met. Not met: criterion not met.

{"Query smiles": "Nc1ccc(-c2cccs2)nc1NC(=O)N1Cc2cncnc2C1", "Target": "human erythroid progenitors (CFU-E, BFU-E)", "Class": "criterion not met"}

Query string: CFU % Control remaining @ 10 μM Erythroid under 50%? Item: Cc1ncc2c(n1)CN(C(=O)Nc1nc(-c3cccs3)ccc1N)C2
Result string: criterion met

Query string: CFU % Control remaining @ 10 μM Erythroid under 50%? Item: Nc1ccc(-c2ccc(F)cc2)nc1NC(=O)N1Cc2nccnc2C1
Result string: criterion met

Query string: CFU % Control remaining @ 10 μM Erythroid under 50%? Item: Nc1ccc(-c2cccs2)nc1NC(=O)N1Cc2nccnc2C1
Result string: criterion met

Query string: CFU % Control remaining @ 10 μM Erythroid under 50%? Item: Nc1ccc(-c2ccc(F)cc2)nc1NC(=O)N1Cc2cncnc2C1
Result string: criterion met

Query string: CFU % Control remaining @ 10 μM Erythroid under 50%? Item: COCc1cc2c(cn1)CN(C(=O)Nc1nc(-c3ccc(F)cc3F)ccc1N)C2
Result string: criterion not met

Query string: CFU % Control remaining @ 10 μM Erythroid under 50%? Item: COCc1cc2c(cn1)CN(C(=O)Nc1nc(-c3ccc(F)cc3)ccc1N)C2
Result string: criterion met

Query string: CFU % Control remaining @ 10 μM Erythroid under 50%? Item: Nc1ccc(-c2ccc(F)cc2)cc1NC(=O)N1Cc2nccnc2C1
Result string: criterion met
